The reported measurements were obtained from patent US11964973B2.

Attribute: IC50
Biological target: UniProt P23743
Sequence (P23743 whole entry, looked up): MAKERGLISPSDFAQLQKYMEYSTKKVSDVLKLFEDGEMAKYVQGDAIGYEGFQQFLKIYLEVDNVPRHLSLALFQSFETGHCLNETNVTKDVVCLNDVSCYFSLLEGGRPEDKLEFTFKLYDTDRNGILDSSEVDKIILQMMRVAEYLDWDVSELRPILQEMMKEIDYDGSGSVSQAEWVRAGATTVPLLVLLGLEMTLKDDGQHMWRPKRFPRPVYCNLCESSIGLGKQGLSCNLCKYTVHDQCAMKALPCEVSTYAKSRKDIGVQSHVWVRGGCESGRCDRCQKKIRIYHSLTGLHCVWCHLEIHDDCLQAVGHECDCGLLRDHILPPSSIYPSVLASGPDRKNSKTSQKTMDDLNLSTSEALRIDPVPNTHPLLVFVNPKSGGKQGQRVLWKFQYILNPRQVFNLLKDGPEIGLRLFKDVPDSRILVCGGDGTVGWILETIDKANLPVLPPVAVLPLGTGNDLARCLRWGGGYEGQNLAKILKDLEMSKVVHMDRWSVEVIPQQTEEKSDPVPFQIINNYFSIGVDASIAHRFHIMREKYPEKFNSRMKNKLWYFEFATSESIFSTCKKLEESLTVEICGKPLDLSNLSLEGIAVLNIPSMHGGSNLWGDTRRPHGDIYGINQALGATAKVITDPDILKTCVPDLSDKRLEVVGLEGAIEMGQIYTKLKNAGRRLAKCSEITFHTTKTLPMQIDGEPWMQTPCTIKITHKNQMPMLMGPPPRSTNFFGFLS
Test: biochemical
Type: biochemical
Details: Table A; liposome (LIPGLO) assay; read-out: DGKα

[
  {
    "COMPOUND": "CC(C)c1ccc(O[C@H]2CCN(c3cc(=O)n(C)c4ccc(C#N)nc34)C[C@H]2C)cc1 (single isomer, unassigned) [Example 184]",
    "TGT": "UniProt P23743",
    "READING_UNIT": "nM",
    "IC50": 1400
  },
  {
    "COMPOUND": "CC[C@@H]1CN(c2cc(=O)n(C)c3ccc(C#N)nc23)CC[C@H]1Oc1cccc(C(C)(C)C)c1 (single isomer, unassigned) [Example 197]",
    "TGT": "UniProt P23743",
    "READING_UNIT": "nM",
    "IC50": 11
  },
  {
    "COMPOUND": "CCC(C)(C)c1ccc(O[C@@H]2CCN(c3c(C#N)c(=O)n(C)c4ccc(C#N)nc34)C[C@H]2C)cc1 (racemic) [Example 229]",
    "TGT": "UniProt P23743",
    "READING_UNIT": "nM",
    "IC50": 280
  },
  {
    "COMPOUND": "C[C@@H]1CN(c2c(C#N)c(=O)n(C)c3ccc(C#N)nc23)CC[C@@H]1Oc1ccc(C(F)(F)F)cc1 [Example 190]",
    "TGT": "UniProt P23743",
    "READING_UNIT": "nM",
    "IC50": 2200
  },
  {
    "COMPOUND": "CCc1cnc(O[C@H]2CCN(c3cc(=O)n(C)c4ccc(C#N)nc34)C[C@H]2C)nc1",
    "TGT": "UniProt P23743",
    "READING_UNIT": "nM",
    "IC50": 350
  },
  {
    "COMPOUND": "CC[C@@H]1CN(c2cc(=O)n(C)c3ccc(C#N)nc23)CC[C@H]1Oc1cccc(C(C)(C)C)c1 (single isomer, unassigned) [Example 198]",
    "TGT": "UniProt P23743",
    "READING_UNIT": "nM",
    "IC50": 160
  }
]

###

Test system: human venous whole blood, CD8 positive population (pERK)
Test: DGK human whole blood pERK assay
Assay type: cell-based
Settings: human whole blood pERK; read-out: DGK HWB
Attribute: EC50

[
  {
    "COMPOUND": "CC(C)c1ccc(O[C@H]2CCN(c3cc(=O)n(C)c4ccc(C#N)nc34)C[C@H]2C)nc1 (single isomer, unassigned) [Example 206]",
    "TGT": "human venous whole blood, CD8 positive population (pERK)",
    "EC50 [µM]": 3.6
  },
  {
    "COMPOUND": "CC1CN(c2cc(=O)n(C)c3ccc(C#N)nc23)CCC1N(C)C(=O)c1ccc(F)cc1 (single isomer, unassigned) [Example 286]",
    "TGT": "human venous whole blood, CD8 positive population (pERK)",
    "EC50 [µM]": 8.7
  },
  {
    "COMPOUND": "CCO[C@H]1CN(c2cc(=O)n(C)c3ccc(C#N)nc23)CC[C@H]1Oc1ccc(OC(C)C)cn1 (relative stereo) [Example 371]",
    "TGT": "human venous whole blood, CD8 positive population (pERK)",
    "EC50 [µM]": 3.6
  },
  {
    "COMPOUND": "CCO[C@H]1CN(c2cc(=O)n(C)c3ccc(C#N)nc23)CC[C@@H]1Oc1ccc2oc(C)nc2c1 [Example 355]",
    "TGT": "human venous whole blood, CD8 positive population (pERK)",
    "EC50 [µM]": 20
  }
]
